Target protein (sequence): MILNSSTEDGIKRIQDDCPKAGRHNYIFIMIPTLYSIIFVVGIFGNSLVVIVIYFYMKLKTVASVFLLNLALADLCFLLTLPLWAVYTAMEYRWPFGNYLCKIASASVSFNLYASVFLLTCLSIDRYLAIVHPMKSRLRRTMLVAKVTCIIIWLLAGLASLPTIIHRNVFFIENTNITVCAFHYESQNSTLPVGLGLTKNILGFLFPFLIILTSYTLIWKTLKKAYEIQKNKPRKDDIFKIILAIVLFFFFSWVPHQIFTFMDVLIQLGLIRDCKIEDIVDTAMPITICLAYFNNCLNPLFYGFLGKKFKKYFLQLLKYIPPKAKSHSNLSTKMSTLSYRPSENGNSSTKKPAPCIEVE
ENDPOINT: IC50 (nM)
Report the figure in nM without appending any unit label.

compound="CCCCc1nc2ccc([C@H]3OC[C@H]4[C@@H]3ON3[C@@H]4CCC3(C)C)cc2c(=O)n1Cc1ccc(-c2ccccc2-c2nnn[nH]2)cc1 (relative stereo) [Example 7]" result_unit=nM data_value=50
compound="CCCCc1nc2ccc([C@H]3OC[C@@H]4ON5[C@@H](CCC5(C)C)[C@@H]43)cc2c(=O)n1Cc1ccc(-c2ccccc2-c2nnn[nH]2)cc1 (relative stereo) [Example 8]" result_unit=nM data_value=37
compound="CCCCc1nc2ccc(C3CC4C(O3)ON(c3ccccc3)C4c3ccccc3)cc2c(=O)n1Cc1ccc(-c2ccccc2-c2nnn[nH]2)cc1 (stereo not shown) [Example 10]" result_unit=nM data_value=76

Prompt: Could you share which IC50 value was measured for CCCCc1nc2ccc(C3CC4C(c5ccc(C)cc5)=NOC4O3)cc2c(=O)n1Cc1ccc(-c2ccccc2-c2nnn[nH]2)cc1 (stereo not shown) [Example 12] ?
Completion: 100
